Data provenance is ChEMBL document CHEMBL4513216.

- Test system: Plasmodium berghei
- ASSAY_METHOD_TEXT: Screen against P. berghei liver stage (PbLuc), transformed with Luciferase, at 2uM
- Format: functional, HepG2
- MEASUREMENT_CONTEXT: tested at 2 uM
The campaign covered roughly 68,000 compounds. About 2,700 (4%) showed an effect of 50% or more. Many of the other results were omitted from the sample, so strong results are more common in it than they were.
PROPERTY_NAME: INHIBITION (%)
I only need the number, in %, no unit after it.

Sample Cc1cnc(CN2CCOC(CNc3cccnn3)C2)cn1 (configuration not stated) ; INHIBITION observed: 18.31

* * *

INHIBITION listing for selected compounds.
- System: Plasmodium berghei
- ASSAY_METHOD_TEXT: Screen against P. berghei liver stage (PbLuc), transformed with Luciferase, at 2uM
- Assay type: functional, HepG2
- MEASUREMENT_CONTEXT: tested at 2 uM
Screen size: about 68,000 compounds; about 2,700 (4%) showed an effect of 50% or more. This is one part of a sample in which strong results are shown more often than they occur.
Report the figure in % without appending any unit label.

Please review the following examples before continuing.
CCN(C)S(=O)(=O)N1C[C@H]2CC[C@@H](C1)N(Cc1cscn1)C2=O; 48.21
CC(C)(C)c1nnc(CN2CCCC(c3cc(C(N)=O)[nH]n3)C2)o1 (stereo unspecified); -47.97
Fc1cnc(N2CCCC3(CCN(Cc4cccs4)C3)C2)nc1 (stereo unspecified); 31.25

Lookup result for CNc1cc2c(nn1)CCN(C(=O)c1ccc3c(c1)OCO3)C2 ; measured INHIBITION: 50.18

// recorded INHIBITION for CCNC(=O)N(C)Cc1ccc(SC)c(OC)c1 : -53.99

For this compound ( Cc1cc(C2CCC2)nc(NCC(C)(C)N2CCCC2)n1 ), measured INHIBITION is 7.85

Quick note, INHIBITION for O=C(NC1CC1)[C@H]1CC[C@@H]2[C@@H](CCN2c2ncc(F)cn2)O1 landed at 1.07

* * *

- System: Plasmodium berghei
- ASSAY_METHOD_TEXT: Screen against P. berghei liver stage (PbLuc), transformed with Luciferase, at 2uM
- Assay type: functional, HepG2
- MEASUREMENT_CONTEXT: tested at 2 uM
Screen size: about 68,000 compounds; about 2,700 (4%) showed an effect of 50% or more. Shown is part of a subset that was picked to be rich in strong results.
PROPERTY_NAME: INHIBITION (%)
Report as a plain number; the unit % is understood.

In the examples that follow, each entry is paired with its recorded INHIBITION.
O=C(Nc1cc(F)ccc1OCC1CCCO1)N1CCCC1 (centres undefined); -5.1
CN1CC2(CNCCN(C(=O)Nc3ccccc3)C2)CC1=O (centres undefined); 56.21
Cc1cccc(NC(=O)N2CCC3(CC(=O)N(c4ccsc4)C3)C2)c1 (centres undefined); 1.29
O=C(NCc1ccccc1)N1CCC2(CC(=O)N(c3ccsc3)C2)C1 (centres undefined); 18.86
O=C(Nc1cc(F)ccc1OCC1CCCO1)c1ccoc1 (centres undefined); -27.04

Looking up COc1cccc(CCC2CCCN(C(=O)c3ccccn3)C2)c1 (centres undefined) , I found its INHIBITION recorded as 26.74

Record summary for COc1cccc(CCC2CCCN(C(C)=O)C2)c1 (centres undefined) : reported INHIBITION = 79.21

INHIBITION for O=C(C1CCCC1)N1CC2(CCN(C3COC3)C2)OCc2ccccc21 (centres undefined) is 12.39

// INHIBITION lookup, compound = Cc1nn(C)c(C)c1CCC(=O)NCC1(C(N)=O)CCOCC1 , result: 25.73

Quick note, INHIBITION for COc1ccc(Cl)cc1CN(C)CC(=O)Nc1ccnn1C(C)C1CC1 (centres undefined) landed at -13.72

The reported value for COc1cccc(OCC2CCCN(C(=O)c3cnn(C)c3)C2)c1 (centres undefined) in terms of INHIBITION is 29.13

# INHIBITION (compound: Cc1noc2nc(C3CCN(CC4CCCCC4)CC3)cc(C(F)F)c12 ) is -7.7

The compound identified as O=C(CN1CCOC(CNc2cccnn2)C1)NCc1ccccn1 (centres undefined) registered its INHIBITION at 33.12

get_value(item= Cc1nn(C)c(Cl)c1C(=O)NCC1(C(N)=O)CCOCC1 , readout=INHIBITION) returns 32.02

Please fill in: INHIBITION reported for O=C(Nc1cc(F)ccc1OCC1CCCO1)N1CCSCC1 (centres undefined) = 9.23

Documented INHIBITION of NC(=O)C1(CNCc2csc(-c3cccs3)n2)CCOCC1 : 36.28

Record COCCN1CCC2(CC1)CC(Nc1ccc(C)nn1)CO2 (centres undefined) , field INHIBITION: 7.72

Lab book: INHIBITION of COC(=O)c1ccc(NC(C)c2ccc3c(c2)CCC(=O)N3)nn1 (centres undefined) noted as 34.22

So for Cn1cc(C(=O)N[C@@H]2CN(Cc3ccoc3)[C@@H]3CCCO[C@@H]32)cn1 , the logged INHIBITION turned out to be -6.61

Looking up CN(C)CCn1c2c(ccc1=O)CCN(C(=O)c1cccs1)CC2 , I found its INHIBITION recorded as 53.27

Short answer for O=C(Nc1cc(F)ccc1OCC1CCCO1)NC1CC1 (centres undefined) : INHIBITION was 56.62

Recorded result, CS(=O)(=O)CCC(=O)Nc1cc(F)ccc1OCC1CCCO1 (centres undefined) , INHIBITION: 6.31

// recorded INHIBITION for Cn1c(C2CC2)nc2c1CCN(Cc1nc3ccccc3s1)C2 : 14.59

GET /value?item= COc1cnc(N2C[C@H](CO)C[C@H](CN3CCOCC3)C2)nc1 &field=INHIBITION returns -3.87
